B1: glmS ribozyme (parent)
chain: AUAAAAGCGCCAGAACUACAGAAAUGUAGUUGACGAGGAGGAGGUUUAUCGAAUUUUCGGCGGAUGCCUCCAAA

- Variants of: B1
- Test description: self-cleavage kobs at 2500 uM GlcN6P; higher = faster cleavage; RNA array
- Condition description: with glucosamine-6-phosphate
This sample holds only a part of the variants without activity.
Reported metric: self-cleavage kobs at 2500 uM GlcN6P

Field: example entries. Status: answers known.
seq_string=AUAAAAGCGACAGAAUUACAGAAAUGUAGUUGACGAGGAGACGGUUUAUCGAAUUUUCGGCGGAUGCCUCCAAA reported_metric="self-cleavage kobs at 2500 uM GlcN6P" experimental_value="< 1e-05 s⁻¹"
seq_string=AUAAAAGCGGCGGAACUACAGAAAUGUAGUUGACGAGGAGGAGGUUGAUCGAACUUUCGGCGGAUGCUUCCAAA reported_metric="self-cleavage kobs at 2500 uM GlcN6P" experimental_value="< 1e-05 s⁻¹"

What does the record list as self-cleavage kobs at 2500 uM GlcN6P for `AUAAAAGUGCCAGGACUACAGAAAUGUAGUUGACGAGGAGGCGGUUUAUCGAAUUUUCGGCGGAUGCCUCCAAA` ?
< 1e-05 s⁻¹

Name the reported self-cleavage kobs at 2500 uM GlcN6P value associated with the variant `AUAAAAGCGCCAGAACUACAGAAAUGUAGUCGAUGAGGAGGAGGUUUAUCGAAUUUUCGGCGGAUGCCCCCAAA`
< 1e-05 s⁻¹

Data request, read-out self-cleavage kobs at 2500 uM GlcN6P, for `AUAAAAGCGCCAGAACUACAGAAAUGUAGUUGACGAGGAGGCGGUUUAUCGAAUUUUCGGAGGAUGCCUCCAAA`
< 1e-05 s⁻¹
